Experiment: Biodistribution of 99mTc complexes in rats
Assay type: in vivo, Australian Albino Wistar Rats
Conditions: rat, kidneys, rats, 1 min, read-out: biodistribution kidneys
Listed here are molecules together with their documented tissue uptake at 1 min.
quantity: tissue uptake at 1 min (%ID/g)

1) O=C(O)CN(CCN(CC(=O)O)CC(=O)Nc1cc([N+](=O)[O-])ccc1O)CC(=O)Nc1cc([N+](=O)[O-])ccc1O: 4.63
2) O=C(O)CN(CCN(CC(=O)O)CC(=O)Nc1ccccc1O)CC(=O)Nc1ccccc1O: 6.55
3) Nc1ccc(O)c(NC(=O)CN(CCN(CC(=O)O)CC(=O)Nc2cc(N)ccc2O)CC(=O)O)c1: 5.7
4) CC(C)(C)c1ccc(O)c(NC(=O)CN(CCN(CC(=O)O)CC(=O)Nc2cc(C(C)(C)C)ccc2O)CC(=O)O)c1: 4.86
5) O=C(O)CN(CCN(CC(=O)O)CC(=O)Nc1ccc(Cl)cc1O)CC(=O)Nc1ccc(Cl)cc1O: 8.37

----------
Assay: Biodistribution of 99mTc complexes in rats
Format: in vivo, Australian Albino Wistar Rats
Settings: rat, liver, rats, 10 min, read-out: biodistribution liver
quantity: tissue uptake at 10 min (%ID/g)

1) O=C(O)CN(CCN(CC(=O)O)CC(=O)Nc1ccccc1O)CC(=O)Nc1ccccc1O [Compound 1]: 0.76
2) O=C(O)CN(CCN(CC(=O)O)CC(=O)Nc1cc([N+](=O)[O-])ccc1O)CC(=O)Nc1cc([N+](=O)[O-])ccc1O [Compound 3]: 0.92
3) CC(C)(C)c1ccc(O)c(NC(=O)CN(CCN(CC(=O)O)CC(=O)Nc2cc(C(C)(C)C)ccc2O)CC(=O)O)c1 [Compound 4]: 4.9
4) O=C(O)CN(CCN(CC(=O)O)CC(=O)Nc1ccc(Cl)cc1O)CC(=O)Nc1ccc(Cl)cc1O [Compound 2]: 1.89
5) Nc1ccc(O)c(NC(=O)CN(CCN(CC(=O)O)CC(=O)Nc2cc(N)ccc2O)CC(=O)O)c1 [Compound 5]: 0.69

----------
Assay: Biodistribution of 99mTc complexes in mice
Type: in vivo, Balb/c mice
Conditions: 30 min
biodistribution heart values by entry
quantity: biodistribution heart (% Injected dose)

1) Cc1cc(C)c(O)c(NC(=O)CN(CCN(CC(=O)O)CC(=O)Nc2cc(C)cc(C)c2O)CC(=O)O)c1: 0.11
2) O=C(O)CN(CCN(CC(=O)O)CC(=O)Nc1ccccc1O)CC(=O)Nc1ccccc1O: 0.05
3) O=C(O)CN(CCN(CC(=O)O)CC(=O)Nc1ccc(Cl)cc1O)CC(=O)Nc1ccc(Cl)cc1O: 0.09
4) CC(C)(C)c1ccc(O)c(NC(=O)CN(CCN(CC(=O)O)CC(=O)Nc2cc(C(C)(C)C)ccc2O)CC(=O)O)c1: 0.05

----------
Test: Biodistribution of 99mTc complexes in mice
Assay type: in vivo, Balb/c mice
Conditions: 30 min
Reported biodistribution urine by item:
quantity: biodistribution urine (% Injected dose)

1) Cc1cc(C)c(O)c(NC(=O)CN(CCN(CC(=O)O)CC(=O)Nc2cc(C)cc(C)c2O)CC(=O)O)c1: 1.64
2) CC(C)(C)c1ccc(O)c(NC(=O)CN(CCN(CC(=O)O)CC(=O)Nc2cc(C(C)(C)C)ccc2O)CC(=O)O)c1: 3.21
3) Nc1ccc(O)c(NC(=O)CN(CCN(CC(=O)O)CC(=O)Nc2cc(N)ccc2O)CC(=O)O)c1: 5.91
4) O=C(O)CN(CCN(CC(=O)O)CC(=O)Nc1ccc(Cl)cc1O)CC(=O)Nc1ccc(Cl)cc1O: 3.84
5) O=C(O)CN(CCN(CC(=O)O)CC(=O)Nc1ccccc1O)CC(=O)Nc1ccccc1O: 8.84
